This collection of values is drawn from paper PMC5944358.

target: HIV-1 YU2 gp120 (HIV-1 YU2, UniProt P35961 32-498); test: SPR
Quantity name: k2 (step 2, forward) (M⁻¹ s⁻¹)

Binder: MVN_G43E/Q81K (natural protein) MPNFSHTCSSINYDPDSTILSAECQARDGEWLPTELRLSDHIENIDGELQFGDQNFQETCQDCHLEFGDGEQSVWLVCTCKTMDGEWKSTQILLDSQIDNNDSQLEIG
Meas value: 0.0082
--
Binder: MVN(Q81K/M83R) (natural protein) MPNFSHTCSSINYDPDSTILSAECQARDGEWLPTELRLSDHIGNIDGELQFGDQNFQETCQDCHLEFGDGEQSVWLVCTCKTRDGEWKSTQILLDSQIDNNDSQLEIG
Meas value: 0.0051
